# assay_system: CDK1 (Homo sapiens, UniProt P06493)
# Sequence (P06493 whole entry): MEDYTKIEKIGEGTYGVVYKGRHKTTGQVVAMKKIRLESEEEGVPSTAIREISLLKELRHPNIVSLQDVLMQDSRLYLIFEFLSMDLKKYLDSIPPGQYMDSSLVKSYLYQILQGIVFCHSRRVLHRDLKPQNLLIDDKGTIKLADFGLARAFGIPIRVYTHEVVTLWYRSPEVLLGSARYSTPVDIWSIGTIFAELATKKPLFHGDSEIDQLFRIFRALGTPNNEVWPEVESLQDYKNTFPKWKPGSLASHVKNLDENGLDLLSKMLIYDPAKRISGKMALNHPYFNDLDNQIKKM
# Sequence (P14635 whole entry partner): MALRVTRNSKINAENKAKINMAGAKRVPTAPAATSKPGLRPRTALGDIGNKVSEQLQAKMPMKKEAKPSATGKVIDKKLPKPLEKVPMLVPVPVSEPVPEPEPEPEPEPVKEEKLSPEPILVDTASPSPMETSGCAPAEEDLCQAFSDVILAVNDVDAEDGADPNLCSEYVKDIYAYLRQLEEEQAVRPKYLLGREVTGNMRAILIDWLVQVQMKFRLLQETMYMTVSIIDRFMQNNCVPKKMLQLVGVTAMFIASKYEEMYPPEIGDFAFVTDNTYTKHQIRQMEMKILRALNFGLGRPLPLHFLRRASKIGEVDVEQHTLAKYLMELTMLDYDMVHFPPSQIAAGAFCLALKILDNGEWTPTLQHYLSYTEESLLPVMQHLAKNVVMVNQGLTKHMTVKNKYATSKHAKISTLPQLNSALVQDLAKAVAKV
pIC50: −log10 of the molar value.
Some compounds, each annotated with its measured pIC50.
measured_attribute: pIC50

>>> df
                                  structure  measured_attribute        result
0  NS(=O)(=O)c1ccc(NN=C2C(=O)Nc3ccc(-c4cnco4)cc32)cc1               pIC50  8.00 to 9.00
1  O=C1Nc2ccc3ncsc3c2C1=CNc1ccc(S(=O)(=O)NCc2ccncc2)cc1               pIC50  7.30 to 7.96

* * *

# assay_system: UniProt:P12931
# Sequence (P12931 whole entry): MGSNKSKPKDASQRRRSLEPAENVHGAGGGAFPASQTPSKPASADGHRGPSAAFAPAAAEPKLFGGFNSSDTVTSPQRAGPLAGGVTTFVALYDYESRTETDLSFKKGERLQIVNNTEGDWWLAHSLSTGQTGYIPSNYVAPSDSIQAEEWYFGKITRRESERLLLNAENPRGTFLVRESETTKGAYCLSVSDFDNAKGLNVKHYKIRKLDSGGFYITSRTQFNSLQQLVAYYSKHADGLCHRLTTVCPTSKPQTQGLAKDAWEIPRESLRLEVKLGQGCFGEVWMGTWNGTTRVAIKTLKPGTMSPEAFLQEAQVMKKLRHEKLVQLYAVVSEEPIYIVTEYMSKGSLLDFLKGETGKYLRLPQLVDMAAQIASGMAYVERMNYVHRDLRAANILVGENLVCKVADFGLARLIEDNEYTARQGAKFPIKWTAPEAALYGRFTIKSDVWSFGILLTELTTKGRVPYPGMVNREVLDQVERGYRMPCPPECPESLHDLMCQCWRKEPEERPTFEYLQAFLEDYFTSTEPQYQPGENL
# assay: Src kinase assay (ELISA or isotope format)
# Type: biochemical
pIC50: −log10 of the molar value.
measured_attribute: pIC50

                                  structure  result
0  NS(=O)(=O)c1ccc(NN=C2C(=O)Nc3ccc(-c4cnco4)cc32)cc1  < 7.00
